- System under test: Fatty acid synthase (Homo sapiens) (UniProt P49327)
- Sequence (P49327 whole entry, looked up, the tested form may be a part): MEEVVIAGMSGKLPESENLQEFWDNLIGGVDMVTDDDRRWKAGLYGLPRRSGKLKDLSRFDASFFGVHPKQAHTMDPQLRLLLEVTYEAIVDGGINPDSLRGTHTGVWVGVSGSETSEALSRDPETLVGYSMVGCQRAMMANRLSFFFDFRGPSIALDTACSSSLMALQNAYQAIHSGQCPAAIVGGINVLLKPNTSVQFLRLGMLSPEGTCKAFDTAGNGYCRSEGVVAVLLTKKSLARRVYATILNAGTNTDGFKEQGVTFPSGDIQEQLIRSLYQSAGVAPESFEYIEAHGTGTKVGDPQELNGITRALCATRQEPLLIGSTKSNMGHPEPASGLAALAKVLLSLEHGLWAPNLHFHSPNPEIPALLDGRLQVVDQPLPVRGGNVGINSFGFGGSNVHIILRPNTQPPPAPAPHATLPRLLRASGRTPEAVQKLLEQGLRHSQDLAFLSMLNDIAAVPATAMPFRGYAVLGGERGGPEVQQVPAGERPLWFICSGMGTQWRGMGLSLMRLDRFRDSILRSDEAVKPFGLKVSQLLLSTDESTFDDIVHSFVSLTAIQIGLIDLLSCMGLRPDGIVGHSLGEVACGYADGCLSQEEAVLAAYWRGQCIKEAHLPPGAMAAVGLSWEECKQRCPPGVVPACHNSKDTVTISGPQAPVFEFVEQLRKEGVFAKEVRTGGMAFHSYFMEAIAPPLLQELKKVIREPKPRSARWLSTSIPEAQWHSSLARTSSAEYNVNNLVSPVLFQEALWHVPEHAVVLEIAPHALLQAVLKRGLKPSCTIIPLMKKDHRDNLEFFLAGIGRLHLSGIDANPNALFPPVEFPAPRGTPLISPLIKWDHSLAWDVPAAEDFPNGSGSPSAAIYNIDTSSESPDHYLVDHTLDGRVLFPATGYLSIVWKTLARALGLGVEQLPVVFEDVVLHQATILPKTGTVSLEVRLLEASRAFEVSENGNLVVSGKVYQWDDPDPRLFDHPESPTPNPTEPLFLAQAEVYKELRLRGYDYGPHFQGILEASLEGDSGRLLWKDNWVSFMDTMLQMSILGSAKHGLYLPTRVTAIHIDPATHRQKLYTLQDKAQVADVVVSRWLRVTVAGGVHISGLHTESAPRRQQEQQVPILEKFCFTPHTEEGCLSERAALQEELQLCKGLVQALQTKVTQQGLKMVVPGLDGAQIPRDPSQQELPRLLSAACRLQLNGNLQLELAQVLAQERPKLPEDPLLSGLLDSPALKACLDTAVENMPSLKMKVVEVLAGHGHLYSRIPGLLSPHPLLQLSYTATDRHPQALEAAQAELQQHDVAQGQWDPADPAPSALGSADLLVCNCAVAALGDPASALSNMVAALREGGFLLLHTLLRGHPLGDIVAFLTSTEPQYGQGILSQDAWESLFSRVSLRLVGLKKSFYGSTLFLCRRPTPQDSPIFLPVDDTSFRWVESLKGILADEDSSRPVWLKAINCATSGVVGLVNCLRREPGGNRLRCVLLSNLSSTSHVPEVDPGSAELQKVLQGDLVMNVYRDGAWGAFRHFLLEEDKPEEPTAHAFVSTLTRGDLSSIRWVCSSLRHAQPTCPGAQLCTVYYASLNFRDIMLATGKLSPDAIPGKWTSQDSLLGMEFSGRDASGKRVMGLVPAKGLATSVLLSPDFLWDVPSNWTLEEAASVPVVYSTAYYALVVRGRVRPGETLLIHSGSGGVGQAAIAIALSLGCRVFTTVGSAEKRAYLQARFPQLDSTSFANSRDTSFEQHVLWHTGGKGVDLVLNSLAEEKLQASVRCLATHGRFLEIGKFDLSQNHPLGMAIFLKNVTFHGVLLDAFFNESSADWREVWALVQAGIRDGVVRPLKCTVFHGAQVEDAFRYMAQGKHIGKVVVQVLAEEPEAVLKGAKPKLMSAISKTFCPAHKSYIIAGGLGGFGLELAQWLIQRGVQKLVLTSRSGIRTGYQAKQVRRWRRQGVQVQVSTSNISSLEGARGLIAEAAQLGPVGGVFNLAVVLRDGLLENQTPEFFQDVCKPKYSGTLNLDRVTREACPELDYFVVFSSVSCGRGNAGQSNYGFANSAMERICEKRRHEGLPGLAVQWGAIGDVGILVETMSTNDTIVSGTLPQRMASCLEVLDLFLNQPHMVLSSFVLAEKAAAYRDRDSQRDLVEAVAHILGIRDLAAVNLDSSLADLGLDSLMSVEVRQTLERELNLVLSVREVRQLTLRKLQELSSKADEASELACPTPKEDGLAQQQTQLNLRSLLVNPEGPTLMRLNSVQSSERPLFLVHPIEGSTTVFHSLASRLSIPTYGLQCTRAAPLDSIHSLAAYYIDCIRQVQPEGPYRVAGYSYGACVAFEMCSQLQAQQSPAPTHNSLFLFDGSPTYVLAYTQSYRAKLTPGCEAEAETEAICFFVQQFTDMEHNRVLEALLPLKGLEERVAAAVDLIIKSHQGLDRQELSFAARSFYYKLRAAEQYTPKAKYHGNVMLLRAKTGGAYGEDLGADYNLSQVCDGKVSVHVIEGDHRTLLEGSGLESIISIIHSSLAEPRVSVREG
- Test description: FAS thioesterase domain inhibitors, SAR follow-up, biochemical, endpoint fluorescence intensity, powder samples (AID 652164)
- Run conditions: recombinant FAS-TE, OMFH substrate fluorescence
Activity calls are given as the source filed them.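 Rule for the calls: active = IC50 at or below 20 µM; inactive = the rest.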
Labels: true for active, false for inactive

>>> print(df.to_string())
                         compound_structure                         system_under_test  answer_label
0  O=C(Nc1nc(-c2ccc(S(=O)(=O)N3CCCC3)cc2)cs1)C1CCCC1  Fatty acid synthase (Homo sapiens) (UniProt P49327)          true
1  CCN(CC)S(=O)(=O)c1ccc(-c2csc(NC(=O)C3CC3)n2)cc1  Fatty acid synthase (Homo sapiens) (UniProt P49327)          true
2  CC(C)CC(=O)Nc1nc(-c2ccc(S(=O)(=O)N3CCOCC3)cc2)cs1  Fatty acid synthase (Homo sapiens) (UniProt P49327)          true
3  CCCCC(=O)Nc1nc(-c2ccc(S(=O)(=O)N(CC)CC)cc2)cs1  Fatty acid synthase (Homo sapiens) (UniProt P49327)          true
4  O=C(Nc1nc(-c2ccc(S(=O)(=O)N3CCOCC3)cc2)cs1)C1CCC1  Fatty acid synthase (Homo sapiens) (UniProt P49327)          true
5  CC(C)(C)OC(=O)Nc1nc(-c2ccc(S(=O)(=O)N3CCOCC3)cc2)cs1  Fatty acid synthase (Homo sapiens) (UniProt P49327)         false
6  O=C(Nc1nc(-c2ccc(S(=O)(=O)N3CCOCC3)cc2)cs1)C1CC1  Fatty acid synthase (Homo sapiens) (UniProt P49327)          true
7  CCC(=O)Nc1nc(-c2ccc(S(=O)(=O)N3CCCC3)cc2)cs1  Fatty acid synthase (Homo sapiens) (UniProt P49327)          true

Each recorded value in this set is attributed to PubChem BioAssay AID652164.
